Test: Solubility (Test F)
Format: physicochemical
Conditions: arithmetic mean if run multiple times
recorded-metric: solubility (µM)

- smiles-string: "COc1cc(C#N)c(O[C@H]2CC[C@@](C)(C(=O)O)CC2)cc1C(=O)N[C@@H]1[C@H]2CC[C@H](C2)[C@@H]1C(=O)NCC(C)(C)C(F)(F)F"
  measured-value: 1000
- smiles-string: "COc1cc(F)c(-c2ccc(C(=O)O)cc2)cc1C(=O)N[C@@H]1[C@H]2CC[C@H](C2)[C@@H]1C(=O)Nc1cccc(S(=O)(=O)C(F)(F)F)c1"
  measured-value: 900
- smiles-string: "COc1cc(F)c(C[C@H]2CC[C@@](C)(C(=O)O)CC2)cc1C(=O)N[C@@H]1[C@H]2CC[C@H](C2)[C@@H]1C(=O)NCC1(C)CCC1"
  measured-value: 61
- smiles-string: "COc1cc(C#N)c(O[C@H]2CC[C@@](C)(C(=O)O)CC2)cc1C(=O)N[C@@H]1[C@H]2CC[C@H](C2)[C@@H]1C(=O)NC1(C#N)CC1"
  measured-value: 950

* * *

Biological target: human RXFP1 (Homo sapiens)
Sequence (Q9HBX9 whole entry): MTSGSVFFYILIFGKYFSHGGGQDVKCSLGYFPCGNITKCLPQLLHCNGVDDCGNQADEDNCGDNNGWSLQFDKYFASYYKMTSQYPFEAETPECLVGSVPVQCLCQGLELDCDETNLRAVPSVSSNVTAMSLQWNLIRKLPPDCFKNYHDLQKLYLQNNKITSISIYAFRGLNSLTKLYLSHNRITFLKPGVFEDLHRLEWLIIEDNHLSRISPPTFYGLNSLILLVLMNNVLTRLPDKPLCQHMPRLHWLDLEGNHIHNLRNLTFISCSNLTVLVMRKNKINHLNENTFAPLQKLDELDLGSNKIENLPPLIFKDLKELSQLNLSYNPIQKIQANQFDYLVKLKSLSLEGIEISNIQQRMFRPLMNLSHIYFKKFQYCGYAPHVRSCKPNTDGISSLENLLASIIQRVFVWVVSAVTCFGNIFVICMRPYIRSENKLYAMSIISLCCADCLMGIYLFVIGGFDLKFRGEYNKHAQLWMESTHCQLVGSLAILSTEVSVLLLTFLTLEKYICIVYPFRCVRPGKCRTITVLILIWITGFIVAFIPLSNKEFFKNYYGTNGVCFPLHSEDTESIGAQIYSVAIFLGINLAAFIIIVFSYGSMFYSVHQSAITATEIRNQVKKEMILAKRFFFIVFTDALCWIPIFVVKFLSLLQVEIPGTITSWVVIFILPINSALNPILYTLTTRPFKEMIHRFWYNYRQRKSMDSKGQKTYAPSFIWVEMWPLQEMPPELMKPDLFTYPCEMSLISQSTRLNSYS
Assay: RXFP1 Hu cAMP (Test A)
Format: cell-based
Set-up: expressed in transfected cells; host or cells: Jump-In T-REx CHO-K1 cells (ThermoFisher), induced with 10 ng/ml doxycycline for 24 h
Details: RXFP1 Hu cAMP; read-out: Test A EC50
recorded-metric: EC50 (µM)

Examples with their reported EC50 follow.
- compound: "COc1cc(F)c(-c2ccc(CCC(=O)O)cn2)cc1C(=O)N[C@@H]1[C@H]2CC[C@H](C2)[C@@H]1C(=O)Nc1cccc(S(=O)(=O)C(F)(F)F)c1"
  reading-unit: "µM"
  measured-value: 0.2
- compound: "COc1cc(F)c(O[C@H]2CC[C@@](C)(C(=O)O)CC2)cc1C(=O)N[C@@H]1COC[C@@H]1C(=O)Nc1cccc(S(=O)(=O)C(F)(F)F)c1 (racemic) [Example 342]"
  reading-unit: "µM"
  measured-value: 0.55

A. COc1cc(F)c(O[C@H]2CC[C@@](C)(C(=O)O)CC2)cc1C(=O)N[C@@H]1[C@H]2CC[C@H](C2)[C@@H]1C(=O)NC1CC(F)(F)C1
B. COc1cc(C#N)c(O[C@H]2CC[C@@](C)(C(=O)O)CC2)cc1C(=O)N[C@@H]1[C@H]2CC[C@H](C2)[C@@H]1C(=O)NCc1cc(C)ccc1C
C. COc1cc(F)c(O[C@H]2C[C@@H](CC(=O)O)C2)cc1C(=O)N[C@@H]1[C@@H]2CC[C@@H](C2)[C@@H]1C(=O)Nc1cccc(S(=O)(=O)C(F)(F)F)c1
// ascending sort on recorded EC50 Quick reminder: the answer is the labels in the order asked.
B, C, A
(B: 0.029 µM, C: 0.2 µM, A: 0.39 µM)

* * *

Experiment: Solubility (Test F)
Format: physicochemical
Conditions: arithmetic mean if run multiple times
recorded-metric: solubility (µM)

Examples with their reported solubility follow.
- molecule: "COc1cc(F)c(-c2cnn(CC(=O)O)c2)cc1C(=O)N[C@H]1[C@@H](C(=O)Nc2cccc(S(=O)(=O)C(F)(F)F)c2)[C@@H]2C=C[C@H]1C2"
  reading-unit: "µM"
  measured-value: 920
- molecule: "COc1cc(F)c(-c2cnc(CCC(=O)O)cn2)cc1C(=O)N[C@@H]1[C@H]2CC[C@H](C2)[C@@H]1C(=O)Nc1cccc(S(=O)(=O)C(F)(F)F)c1"
  reading-unit: "µM"
  measured-value: 890
- molecule: "COc1cc(F)c(C2=CCC(C(=O)O)CC2)cc1C(=O)N[C@@H]1[C@H]2CC[C@H](C2)[C@@H]1C(=O)Nc1cccc(S(=O)(=O)C(F)(F)F)c1 (mixture of isomers)"
  reading-unit: "µM"
  measured-value: 680

A. CCOc1cc(F)c(O[C@H]2CC[C@@](C)(C(=O)O)CC2)cc1C(=O)N[C@@H]1[C@H]2CC[C@H](C2)[C@@H]1C(=O)NCC1(C)CCC1
B. CCCC1(CNC(=O)[C@H]2[C@@H]3CC[C@@H](C3)[C@H]2NC(=O)c2cc(O[C@H]3CC[C@@](C)(C(=O)O)CC3)c(C#N)cc2OC)CCC1
Of the two listed items, A and B , which carries the larger solubility figure? Your choice should be expressed through its label.
A
